Tested on: MDA-MB-435
Assay: NCI tumour cell line growth inhibition, 48 h
Where a SMILES comes first, the peptide text is derived from it. The star is where a group is joined. Boc = CC(C)(C)OC(=O)*
TGI values by entry
MEASURED_ENDPOINT: TGI

MOLECULE: COCN1C(=O)[C@@H]2CCCN2C(=O)c2cc(N)ccc21
MEASURED_ENDPOINT: TGI
RECORDED_MEASUREMENT: > 100 µM

MOLECULE: COc1cc(-c2nc(SCCC(C)C)nc(Nc3ccc(S(N)(=O)=O)cc3)c2C#N)cc(OC)c1OC
MEASURED_ENDPOINT: TGI
RECORDED_MEASUREMENT: > 100 µM

MOLECULE: OCC#Cc1ccccc1C#CCCCCCC#Cc1ccccc1C#CCO
MEASURED_ENDPOINT: TGI
RECORDED_MEASUREMENT: 36.1 µM

MOLECULE: COc1ccccc1C(=O)c1c(NCc2ccccc2)c(=O)c1=O
MEASURED_ENDPOINT: TGI
RECORDED_MEASUREMENT: > 100 µM

MOLECULE: CSc1nc(SC)c2c(CO)c(Br)n(Cc3ccccc3)c2n1
MEASURED_ENDPOINT: TGI
RECORDED_MEASUREMENT: > 100 µM

MOLECULE: COC(=O)C(Cc1c[nH]c2ccccc12)NC(=O)C(Cc1c[nH]c2ccccc12)NC(=O)C(Cc1c[nH]c2ccccc12)NC(=O)C(Cc1c[nH]c2ccccc12)NC(=O)C(Cc1c[nH]c2ccccc12)NC(=O)C(Cc1c[nH]c2ccccc12)NC(=O)C(Cc1c[nH]c2ccccc12)NC(=O)C(Cc1c[nH]c2ccccc12)NC(=O)OC(C)(C)C (configuration not stated) (Boc-WWWWWWWW-OMe; configuration not given here)
MEASURED_ENDPOINT: TGI
RECORDED_MEASUREMENT: > 100 µM

MOLECULE: C=C(c1ccccc1)[C@@]1(O)CC[C@@H]1N(CC#N)Cc1ccccc1
MEASURED_ENDPOINT: TGI
RECORDED_MEASUREMENT: 47.5 µM

###

Tested on: RPMI-8226 leukemia
Assay: NCI tumour cell line growth inhibition, 48 h
TGI values by entry
MEASURED_ENDPOINT: TGI

COMPOUND: COc1cc(CNNC(N)=S)cc(OC)c1OC
TESTED_TARGET: RPMI-8226 leukemia
RECORDED_MEASUREMENT: > 100 µM

COMPOUND: COc1ccccc1NC(=O)CC(=O)N/N=C/c1ccc(N(CCC#N)S(=O)(=O)c2ccccc2)cc1
TESTED_TARGET: RPMI-8226 leukemia
RECORDED_MEASUREMENT: > 100 µM

COMPOUND: CCCC(=O)OC1C(CO)OC(n2cc(F)c(=O)[nH]c2=O)C1F (stereo not given)
TESTED_TARGET: RPMI-8226 leukemia
RECORDED_MEASUREMENT: > 100 µM

COMPOUND: CCN(CC)c1ccc(N=Nc2ccc(-c3nc4ccc[n+](C)c4o3)cc2)cc1
TESTED_TARGET: RPMI-8226 leukemia
RECORDED_MEASUREMENT: 7.38 µM

COMPOUND: CCOC(=O)c1[nH]c(COC(C)=O)c2c1CCCCCCCCCC2
TESTED_TARGET: RPMI-8226 leukemia
RECORDED_MEASUREMENT: > 100 µM

COMPOUND: COc1ccc(C2ON(c3cccc(C)n3)CC=C2C)cc1 (stereo not given)
TESTED_TARGET: RPMI-8226 leukemia
RECORDED_MEASUREMENT: > 100 µM

COMPOUND: CC(=O)O[C@H]1C(=O)[C@@]2(C)C(C(OC(=O)c3ccccc3)C3[C@@H](O)C(OC(=O)[C@@H](O)[C@H](NC(=O)c4ccccc4)c4ccc(C(F)(F)F)cc4)C(C)=C1C3(C)C)[C@]1(OC(C)=O)CO[C@@H]1C[C@@H]2O (stereo not given in full)
TESTED_TARGET: RPMI-8226 leukemia
RECORDED_MEASUREMENT: > 25 µM

COMPOUND: N/C(=N\N=C\c1ccc2c(c1)OCCO2)NO
TESTED_TARGET: RPMI-8226 leukemia
RECORDED_MEASUREMENT: > 64.4 µM

COMPOUND: NC(N)=NS(=O)(=O)c1ccc(NCCc2c3ccccc3nc3ccccc23)cc1
TESTED_TARGET: RPMI-8226 leukemia
RECORDED_MEASUREMENT: > 100 µM

COMPOUND: COC(=O)c1c2cccccc-2c(Cc2c3cccccc-3c(C(=O)OC)c2O)c1O
TESTED_TARGET: RPMI-8226 leukemia
RECORDED_MEASUREMENT: > 100 µM

###

Tested on: T-47D breast
Experiment: NCI tumour cell line growth inhibition, 48 h; in the data active means GI50 below about 0.43 µM; inactive means the rest
Outcomes: true (1) = active, false (0) = inactive

COMPOUND: O=C1C(Cl)=C(NCc2ccco2)C(=O)c2ccccc21
TESTED_TARGET: T-47D breast
CLASS_NAME: false (0)
//
COMPOUND: CN(C)c1ccc(/C=C/c2cc[n+](C)c(/C=C/c3ccc(N(C)C)cc3)c2)cc1
TESTED_TARGET: T-47D breast
CLASS_NAME: true (1)
//
COMPOUND: CCCCCCCc1cc2c3c(nc4ccccc42)C(=O)c2cccnc2-c3n1
TESTED_TARGET: T-47D breast
CLASS_NAME: false (0)
//
COMPOUND: Cc1cnc(C(=O)NNc2nc3sc4c(c3c(=O)n2C)C(C)CCC4)cn1 (centres undefined)
TESTED_TARGET: T-47D breast
CLASS_NAME: true (1)
//
COMPOUND: C#CCOc1cccc(Nc2ncnc3cc(NC(=O)CCl)ccc23)c1
TESTED_TARGET: T-47D breast
CLASS_NAME: false (0)
//
COMPOUND: O=c1c(-c2ccccc2)coc2cc(OC/C(=N/O)c3ccccc3)ccc12
TESTED_TARGET: T-47D breast
CLASS_NAME: false (0)
//
COMPOUND: Cc1ncc(C(=O)Nc2ccc(CN3CCN(C)CC3)c(C(F)(F)F)c2)cc1C#Cc1cnc(N)cc1C#N
TESTED_TARGET: T-47D breast
CLASS_NAME: false (0)
//
COMPOUND: COc1cc(-c2nc(SCCC(C)C)nc(Nc3ccc(S(N)(=O)=O)cc3)c2C#N)cc(OC)c1OC
TESTED_TARGET: T-47D breast
CLASS_NAME: false (0)
//
COMPOUND: C=C1C(=O)O[C@H]2[C@H]1CC/C(Cn1cc(-c3ccccc3C(F)(F)F)nn1)=C\CC[C@@]1(C)O[C@@H]21
TESTED_TARGET: T-47D breast
CLASS_NAME: false (0)

###

Test system: NCI-H522 lung
Assay: NCI tumour cell line growth inhibition, 48 h
Classification field: condition met = TGI at or over 20 µM; condition not met = TGI under 20 µM.

MOLECULE: CCOc1ccc2nc(NC(=O)C(=O)C(c3cnc4ccccc4n3)[N+](=O)[O-])sc2c1 (stereo unspecified)
TESTED_TARGET: NCI-H522 lung
CLASS_NAME: condition met
//
MOLECULE: Cc1cc(S(=O)(=O)Nc2nc3ccccc3c(=O)n2N)c(S)cc1Cl
TESTED_TARGET: NCI-H522 lung
CLASS_NAME: condition met
//
MOLECULE: Cc1ccc(S(=O)(=O)NNCNC(=O)c2ccccc2)cc1
TESTED_TARGET: NCI-H522 lung
CLASS_NAME: condition met
//
MOLECULE: C/C(=N\NC(=S)NCCCNC(=S)N/N=C(\C)c1ccccn1)c1ccccn1
TESTED_TARGET: NCI-H522 lung
CLASS_NAME: condition met
//
MOLECULE: CCCC(=O)Nc1cc(/C=C/C(=O)N2CC(CCl)c3c2cc(O)c2[nH]cc(C)c32)n(C)c1 (stereo unspecified)
TESTED_TARGET: NCI-H522 lung
CLASS_NAME: condition not met
//
MOLECULE: CCN1CCC(O)(c2ccc(Cl)cc2)C(C(=O)c2ccc(Cl)cc2)C1 (stereo unspecified)
TESTED_TARGET: NCI-H522 lung
CLASS_NAME: condition met
//
MOLECULE: CC(=O)OCc1cc2ccccc2nc1C(Br)(Br)Br
TESTED_TARGET: NCI-H522 lung
CLASS_NAME: condition met
//
MOLECULE: O=C(Nc1nc(C23CC4CC(CC(C4)C2)C3)cs1)c1cc2ccccc2oc1=O
TESTED_TARGET: NCI-H522 lung
CLASS_NAME: condition met
//
MOLECULE: C=C1C(=O)O[C@H]2[C@H]1CC/C(Cn1cc(-c3ccccc3C(F)(F)F)nn1)=C\CC[C@@]1(C)O[C@@H]21
TESTED_TARGET: NCI-H522 lung
CLASS_NAME: condition not met
//
MOLECULE: NC(N)=NS(=O)(=O)c1ccc(NCCc2c3ccccc3nc3ccccc23)cc1
TESTED_TARGET: NCI-H522 lung
CLASS_NAME: condition met
//
MOLECULE: BrC(c1cccc2ccccc12)c1cccc2ccccc12
TESTED_TARGET: NCI-H522 lung
CLASS_NAME: condition met
//
MOLECULE: CCN(CC)c1ccc(N=Nc2ccc(-c3nc4ccc[n+](C)c4o3)cc2)cc1
TESTED_TARGET: NCI-H522 lung
CLASS_NAME: condition not met
//
MOLECULE: COc1cc2c(cc1OC)C13CCN4CC5CCOC6CC(=O)N2C1C6C5CC43 (stereo unspecified)
TESTED_TARGET: NCI-H522 lung
CLASS_NAME: condition met
//
MOLECULE: CCCCCCCc1cc2c3c(nc4ccccc42)C(=O)c2cccnc2-c3n1
TESTED_TARGET: NCI-H522 lung
CLASS_NAME: condition not met
//
MOLECULE: O=C1CCc2c(sc3[nH]c(=S)n(Cc4ccc(Cl)cc4)c(=O)c23)C1
TESTED_TARGET: NCI-H522 lung
CLASS_NAME: condition not met
//
MOLECULE: CCN(CC)C(=O)C(C)n1cc(C)c(=O)[nH]c1=O (stereo unspecified)
TESTED_TARGET: NCI-H522 lung
CLASS_NAME: condition met
//
MOLECULE: COc1ccc(SCc2cc(OCc3ccccc3)c(OCc3ccccc3)c(OCc3ccccc3)c2)cc1
TESTED_TARGET: NCI-H522 lung
CLASS_NAME: condition not met
//
MOLECULE: CN(C)c1ccc(/C=c2\sc3nc4ccccc4n3c2=O)cc1
TESTED_TARGET: NCI-H522 lung
CLASS_NAME: condition met
//
MOLECULE: CCCCCCCCCCCCCCCCCCN(C)CC(COP(=O)([O-])OCC[N+](C)(C)C)OC (stereo unspecified)
TESTED_TARGET: NCI-H522 lung
CLASS_NAME: condition met
//
MOLECULE: Cc1cc(C)cc(NC(N)=S)c1
TESTED_TARGET: NCI-H522 lung
CLASS_NAME: condition met
//
MOLECULE: NC(N)=NS(=O)(=O)c1ccc(Nc2c3ccccc3nc3c(C(=O)Nc4ccc(S(N)(=O)=O)cc4)cccc23)cc1
TESTED_TARGET: NCI-H522 lung
CLASS_NAME: condition met
